test_details: Pharmacokinetic analysis in mice
particulars: mouse, in vivo

{"compound": "CC[C@H](CO)Nc1nc(NCc2ccccc2)c2ncn(C(C)C)c2n1 [Roscovitine]", "measure_unit": "h", "half-life": 2.7}

---

target_system: CDK4/cyclin D1 (Homo sapiens)
Sequence (P11802 whole entry, species assumed): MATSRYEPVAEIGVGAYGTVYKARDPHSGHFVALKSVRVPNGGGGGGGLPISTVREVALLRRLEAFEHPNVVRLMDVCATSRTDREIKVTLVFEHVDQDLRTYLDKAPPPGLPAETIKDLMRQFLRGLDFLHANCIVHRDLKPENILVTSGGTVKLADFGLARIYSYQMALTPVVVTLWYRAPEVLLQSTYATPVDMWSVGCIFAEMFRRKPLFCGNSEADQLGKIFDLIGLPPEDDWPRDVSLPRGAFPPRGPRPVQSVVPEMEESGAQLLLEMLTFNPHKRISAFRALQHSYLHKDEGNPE
Sequence (P24385 whole entry partner, species assumed): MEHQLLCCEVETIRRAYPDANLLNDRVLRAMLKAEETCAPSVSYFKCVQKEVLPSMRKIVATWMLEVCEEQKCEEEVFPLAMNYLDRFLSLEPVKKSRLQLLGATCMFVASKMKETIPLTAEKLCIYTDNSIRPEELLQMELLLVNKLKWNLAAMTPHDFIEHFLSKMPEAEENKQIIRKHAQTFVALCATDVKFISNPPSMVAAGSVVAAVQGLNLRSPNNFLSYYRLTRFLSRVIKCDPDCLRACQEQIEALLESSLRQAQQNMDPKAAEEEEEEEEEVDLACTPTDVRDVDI
test_details: CDK4/cyclin D1 kinase assay (GST-Rb phosphorylation)
particulars: Table 2; read-out: Kinase inhibition CDK4/cyclin D1 IC50

{"compound": "CC[C@@H](Nc1nc(NCc2ccccc2)c2ncn(C(C)C)c2n1)C(O)C(C)(C)C (mixture of isomers)", "measure_unit": "µM", "value_prefix": ">", "IC50": 200}
{"compound": "CCC(O)[C@@H](CC)Nc1nc(NCc2ccccc2)c2ncn(C(C)C)c2n1 (mixture of isomers)", "measure_unit": "µM", "value_prefix": "=", "IC50": 34}
{"compound": "CC[C@H](CO)Nc1nc(NCc2ccncc2)c2ncn(C(C)C)c2n1", "measure_unit": "µM", "value_prefix": "=", "IC50": 30}
{"compound": "CC[C@@H](Nc1nc(NCc2ccccc2)c2ncn(C(C)C)c2n1)C(C)(C)O", "measure_unit": "µM", "value_prefix": "=", "IC50": 12}
{"compound": "CC[C@H](Nc1nc(NCc2ccccc2)c2ncn(C(C)C)c2n1)C(O)C(C)(C)C (mixture of isomers)", "measure_unit": "µM", "value_prefix": "=", "IC50": 60}
{"compound": "CC[C@@H](Nc1nc(NCc2ccccc2)c2ncn(C(C)C)c2n1)C(O)C(C)C (mixture of isomers)", "measure_unit": "µM", "value_prefix": "=", "IC50": 28}
{"compound": "CC[C@H](Nc1nc(NCc2ccccc2)c2ncn(C(C)C)c2n1)C(C)(C)O", "measure_unit": "µM", "value_prefix": "=", "IC50": 8.5}

---

Test system: CH1
test_details: 72-h MTT proliferation assay, CH1
Format: cell-based
particulars: Homo sapiens, read-out: IC50 Cell line CH1
pIC50: −log10 of the molar value.

{"molecule": "CC[C@H](CO)Nc1nc(NCc2ccccn2)c2ncn(C(C)C)c2n1", "pIC50": 4.59}
{"molecule": "CC[C@@H](Nc1nc(NCc2ccccc2)c2ncn(C(C)C)c2n1)C(C)O (mixture of isomers)", "pIC50": 4.77}
{"molecule": "CC[C@H](Nc1nc(NCc2ccccc2)c2ncn(C(C)C)c2n1)[C@@H](C)O", "pIC50": 5.74}
{"molecule": "CC(C)[C@H](CO)Nc1nc(Nc2cccc([N+](=O)[O-])c2)c2ncn(C(C)C)c2n1", "pIC50": 5.64}
{"molecule": "OC1CCCN(c2nc(Nc3ccc4c(c3)CCC4)c3ncn(C4CCCC4)c3n2)C1 (stereo not drawn)", "pIC50": 5.82}
{"molecule": "CC[C@H](CO)Nc1nc(Nc2cccc([N+](=O)[O-])c2)c2ncn(C(C)C)c2n1", "pIC50": 5.96}
{"molecule": "CC[C@H](CO)Nc1nc(NCc2ccncc2)c2ncn(C(C)C)c2n1", "pIC50": 5.09}
{"molecule": "CC[C@@H](Nc1nc(NCc2ccccc2)c2ncn(C(C)C)c2n1)[C@H](C)O", "pIC50": 5.30}
{"molecule": "COc1ccc(CNc2nc(N3CCCC(O)C3)nc3c2ncn3C2CCCC2)cc1OC (stereo not drawn)", "pIC50": 6.03}

---

target_system: cyclic AMP-dependent kinase (PKA) catalytic subunit (Homo sapiens, UniProt P17612)
test_details: PKA kinase assay (Kemptide phosphorylation)
particulars: Table 2; read-out: Kinase inhibition PKA IC50
pIC50: −log10 of the molar value.
# pIC50 per entry
reported_property: pIC50

{"compound": "CC[C@H](Nc1nc(NCc2ccccc2)c2ncn(C(C)C)c2n1)C(O)C(C)C (stereo partly drawn) [Example 12]", "target_system": "cyclic AMP-dependent kinase (PKA) catalytic subunit (Homo sapiens, UniProt P17612)", "reported_property": "pIC50", "reading": 4.08}
{"compound": "CC[C@H](CO)Nc1nc(NCc2ccncc2)c2ncn(C(C)C)c2n1 [Example 6]", "target_system": "cyclic AMP-dependent kinase (PKA) catalytic subunit (Homo sapiens, UniProt P17612)", "reported_property": "pIC50", "reading": "< 4.30"}
{"compound": "CC[C@H](Nc1nc(NCc2ccccc2)c2ncn(C(C)C)c2n1)C(O)C(C)(C)C (mixture of isomers) [Example 14]", "target_system": "cyclic AMP-dependent kinase (PKA) catalytic subunit (Homo sapiens, UniProt P17612)", "reported_property": "pIC50", "reading": "< 3.70"}

---

target_system: CDK7/cyclin H (Homo sapiens, UniProt P50613)
Sequence (P50613 whole entry, species assumed): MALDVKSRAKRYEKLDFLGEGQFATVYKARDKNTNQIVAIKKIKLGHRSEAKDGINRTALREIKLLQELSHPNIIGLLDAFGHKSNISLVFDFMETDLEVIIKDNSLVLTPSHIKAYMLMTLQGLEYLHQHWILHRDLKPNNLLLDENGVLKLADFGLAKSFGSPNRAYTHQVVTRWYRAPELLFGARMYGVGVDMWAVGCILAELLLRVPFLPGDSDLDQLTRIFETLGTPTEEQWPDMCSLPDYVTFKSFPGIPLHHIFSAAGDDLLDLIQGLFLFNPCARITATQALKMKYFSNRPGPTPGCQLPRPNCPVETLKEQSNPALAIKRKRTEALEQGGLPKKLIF
Sequence (P51946 whole entry partner, species assumed): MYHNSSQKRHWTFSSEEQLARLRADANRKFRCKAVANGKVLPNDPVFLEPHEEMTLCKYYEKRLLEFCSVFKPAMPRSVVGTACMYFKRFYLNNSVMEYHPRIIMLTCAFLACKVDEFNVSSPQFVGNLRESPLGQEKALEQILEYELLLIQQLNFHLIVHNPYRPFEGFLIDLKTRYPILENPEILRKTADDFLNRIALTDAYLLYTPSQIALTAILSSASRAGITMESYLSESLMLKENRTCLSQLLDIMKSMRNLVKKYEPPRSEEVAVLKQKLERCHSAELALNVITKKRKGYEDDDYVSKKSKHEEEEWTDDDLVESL
test_details: CDK7/cyclin H kinase inhibition
particulars: Table 2

{"compound": "CC[C@@H](Nc1nc(NCc2ccccc2)c2ncn(C(C)C)c2n1)C(O)C(C)(C)C (mixture of isomers)", "IC50": "3700 nM"}
{"compound": "CC[C@H](Nc1nc(NCc2ccccc2)c2ncn(C(C)C)c2n1)C(C)(C)O", "IC50": "2000 nM"}
{"compound": "CC[C@H](CO)Nc1nc(NCc2ccncc2)c2ncn(C(C)C)c2n1", "IC50": "740 nM"}
{"compound": "CC[C@@H](Nc1nc(NCc2ccccc2)c2ncn(C(C)C)c2n1)C(C)(C)O", "IC50": "3700 nM"}

---

target_system: CDK2/cyclin E (Homo sapiens)
Construct: His
test_details: CDK2/cyclin E kinase assay (GST-Rb phosphorylation)
particulars: Table 1

{"molecule": "CC(C)[C@H](CO)Nc1nc(Nc2cccc([N+](=O)[O-])c2)c2ncn(C(C)C)c2n1", "IC50 (nM)": 330}
{"molecule": "COc1ccc(CNc2nc(N3CCCC(O)C3)nc3c2ncn3C2CCCC2)cc1OC (stereo not shown)", "IC50 (nM)": 1840}
{"molecule": "OC1CCCN(c2nc(Nc3ccc4c(c3)CCC4)c3ncn(C4CCCC4)c3n2)C1 (stereo not shown)", "IC50 (nM)": 580}
{"molecule": "CC[C@H](CO)Nc1nc(Nc2cccc([N+](=O)[O-])c2)c2ncn(C(C)C)c2n1", "IC50 (nM)": 28}

---

# IC50 per entry
target_system: cyclic AMP-dependent kinase (PKA) catalytic subunit (Homo sapiens, UniProt P17612)
test_details: PKA kinase assay (Kemptide phosphorylation)
particulars: Table 2; read-out: Kinase inhibition PKA IC50

{"compound": "CCC(O)[C@H](CC)Nc1nc(NCc2ccccc2)c2ncn(C(C)C)c2n1 (some centres unmarked) [Example 10]", "target_system": "cyclic AMP-dependent kinase (PKA) catalytic subunit (Homo sapiens, UniProt P17612)", "value_prefix": ">", "IC50 (µM)": 200}
{"compound": "CCC(O)[C@@H](CC)Nc1nc(NCc2ccccc2)c2ncn(C(C)C)c2n1 (mixture of isomers) [Example 9]", "target_system": "cyclic AMP-dependent kinase (PKA) catalytic subunit (Homo sapiens, UniProt P17612)", "value_prefix": "=", "IC50 (µM)": 139}
{"compound": "CC[C@@H](Nc1nc(NCc2ccccc2)c2ncn(C(C)C)c2n1)C(O)C(C)(C)C (mixture of isomers) [Example 13]", "target_system": "cyclic AMP-dependent kinase (PKA) catalytic subunit (Homo sapiens, UniProt P17612)", "value_prefix": "=", "IC50 (µM)": 87}
{"compound": "CCC(Nc1nc(NCc2ccccc2)c2ncn(C(C)C)c2n1)C(C)O (centres unmarked) [Example 7]", "target_system": "cyclic AMP-dependent kinase (PKA) catalytic subunit (Homo sapiens, UniProt P17612)", "value_prefix": ">", "IC50 (µM)": 50}
{"compound": "CC[C@H](Nc1nc(NCc2ccccc2)c2ncn(C(C)C)c2n1)C(C)(C)O [Example 16]", "target_system": "cyclic AMP-dependent kinase (PKA) catalytic subunit (Homo sapiens, UniProt P17612)", "value_prefix": "≥", "IC50 (µM)": 200}
{"compound": "CC[C@H](CO)Nc1nc(NCc2ccccn2)c2ncn(C(C)C)c2n1 [Example 5]", "target_system": "cyclic AMP-dependent kinase (PKA) catalytic subunit (Homo sapiens, UniProt P17612)", "value_prefix": ">", "IC50 (µM)": 50}
{"compound": "CC[C@@H](Nc1nc(NCc2ccccc2)c2ncn(C(C)C)c2n1)C(C)(C)O [Example 15]", "target_system": "cyclic AMP-dependent kinase (PKA) catalytic subunit (Homo sapiens, UniProt P17612)", "value_prefix": "=", "IC50 (µM)": 191}
{"compound": "CC[C@@H](Nc1nc(NCc2ccccc2)c2ncn(C(C)C)c2n1)C(O)C(C)C (mixture of isomers) [Example 11]", "target_system": "cyclic AMP-dependent kinase (PKA) catalytic subunit (Homo sapiens, UniProt P17612)", "value_prefix": "=", "IC50 (µM)": 92}

---

# AUC(0-inf) per entry
test_details: in vivo
particulars: mouse
reported_property: AUC(0-inf) (ng·h/mL)

{"compound": "OC1CCCN(c2nc(Nc3ccc4c(c3)CCC4)c3ncn(C4CCCC4)c3n2)C1 (centres unmarked)", "measure_unit": "ng·h/mL", "reading": 62500}
{"compound": "COc1ccc(CNc2nc(N3CCCC(O)C3)nc3c2ncn3C2CCCC2)cc1OC (centres unmarked)", "measure_unit": "ng·h/mL", "reading": 19500}
